Recorded % block by entry
Molecular target: T1, human CX3CR1 (human, UniProt P49238 1-355)
T1 construct: overexpressed on CHO, BA/F3 or HEK293T cells; also called huCX3CR1; hCX3CR1
T1 sequence: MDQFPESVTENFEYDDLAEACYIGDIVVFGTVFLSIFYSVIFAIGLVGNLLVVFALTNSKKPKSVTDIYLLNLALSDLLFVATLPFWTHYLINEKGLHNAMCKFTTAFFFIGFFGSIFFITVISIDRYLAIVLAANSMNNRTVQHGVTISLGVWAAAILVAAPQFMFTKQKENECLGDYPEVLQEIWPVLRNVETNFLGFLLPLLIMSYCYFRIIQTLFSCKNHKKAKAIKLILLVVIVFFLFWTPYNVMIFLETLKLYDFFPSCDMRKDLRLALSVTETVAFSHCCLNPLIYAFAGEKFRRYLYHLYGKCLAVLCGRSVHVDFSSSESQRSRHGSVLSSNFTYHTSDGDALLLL
Assay: A647-fractalkine competition FACS, CHO-huCX3CR1
Description: Periplasmic extracts were screened in a human CX3CR1/human Fractalkine FACS competition assay to assess the blocking capacity of the expressed VHHs. Human CX3CR1 was presented on CHO cells overexpressing CX3CR1. […] After one hour incubation at 4 C, cells were washed three times before read out was performed on a FACS Array (Becton Dickinson). First a gate was set on the intact cells as determined from the scatter profile. […]
Entry rule: numbers only, all in %.

Below, each entry is followed by its recorded % block result.
Binder: CX3CR1BIIPMP54A12 (VHH, also called CX3CR1BII54A12; not shown: C-terminal c-myc and His6 tags) VHH: EVQLVESGGGSVQAGESLRLSCAASGSIFSSNAMAWYRQAPGKQRDLVAVINSVGITKYADSVKGRFTISGDNAKNTVYLQMNSLKPEDTAVYYCTSDARRGWDTRYWGQGTQVTVSS
Reported Property: % block
Readout Number: 104
//
Binder: CX3CR1BIIPMP18E6 (VHH, family 13; also called 18E06; CX3CR1BII18E06; not shown: C-terminal c-myc and His6 tags) VHH: KVQLVESGGGLVQPGGSLRLSCATSGTIFSNNAMGWYRQAPGKKRDLVASISSSGSTNYADSVKGRFTVSRDNDKNTGYLQMNSLKPEDTGVYYCTLDARRGWNTAYWGQGAQVTVSS
Reported Property: % block
Readout Number: 33

## Task Entry under review: CX3CR1BIIPMP54D8 (VHH, also called 54D08; CX3CR1BII54D08; not shown: C-terminal c-myc and His6 tags) VHH: EVQLVESGGGSVQAGGSLRLSCAASGSIFSSNAMAWYRQAPGKQRDLVAGINSVGITKYADSVKGRFTISRDNAKNTVYLQMNSLKPEDTAVYYCTSDPRRGWDTRYWGQGTLVTVSS . Reported % block?
## Result 101

## Task What does the data say about its % block? Entry: CX3CR1BIIPMP54B3 (VHH, also called 54B03; not shown: C-terminal c-myc and His6 tags) VHH: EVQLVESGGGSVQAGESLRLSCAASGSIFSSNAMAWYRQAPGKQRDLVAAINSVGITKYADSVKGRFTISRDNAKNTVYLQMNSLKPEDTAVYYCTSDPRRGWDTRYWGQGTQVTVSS
## Result 108
